- Study target: AR protein (Homo sapiens, UniProt P10275)
- Construct: endogenous in cells; host or cells: VCaP
- Sequence (P10275 whole entry): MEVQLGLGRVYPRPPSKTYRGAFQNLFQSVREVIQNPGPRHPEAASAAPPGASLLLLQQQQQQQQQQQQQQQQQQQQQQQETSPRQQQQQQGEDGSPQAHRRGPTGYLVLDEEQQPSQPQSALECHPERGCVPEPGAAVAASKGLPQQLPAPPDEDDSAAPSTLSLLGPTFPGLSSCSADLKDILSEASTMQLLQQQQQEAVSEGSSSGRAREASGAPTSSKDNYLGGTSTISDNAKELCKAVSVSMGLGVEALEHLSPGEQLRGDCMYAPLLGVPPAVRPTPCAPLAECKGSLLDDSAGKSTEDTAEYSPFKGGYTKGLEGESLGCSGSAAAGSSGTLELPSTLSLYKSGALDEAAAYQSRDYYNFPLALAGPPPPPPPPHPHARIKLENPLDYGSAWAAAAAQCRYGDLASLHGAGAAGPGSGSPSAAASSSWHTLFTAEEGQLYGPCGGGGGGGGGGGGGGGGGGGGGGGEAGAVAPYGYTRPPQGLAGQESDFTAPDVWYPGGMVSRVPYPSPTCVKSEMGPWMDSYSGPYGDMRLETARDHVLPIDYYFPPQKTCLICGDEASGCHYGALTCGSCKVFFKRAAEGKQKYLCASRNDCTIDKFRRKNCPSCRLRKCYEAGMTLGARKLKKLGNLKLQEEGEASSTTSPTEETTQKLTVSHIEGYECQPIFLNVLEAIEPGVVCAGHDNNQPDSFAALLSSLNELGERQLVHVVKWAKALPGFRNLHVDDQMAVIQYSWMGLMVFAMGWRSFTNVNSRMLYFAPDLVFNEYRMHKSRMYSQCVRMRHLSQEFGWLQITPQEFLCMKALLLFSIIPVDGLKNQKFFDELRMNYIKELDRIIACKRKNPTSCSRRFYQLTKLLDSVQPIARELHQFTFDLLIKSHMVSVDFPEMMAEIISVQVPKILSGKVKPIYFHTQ
- Procedure details: Western blotting of AR protein degradation in VCaP cells
- Format: cell-based
- Details: 0.1 μM
// assign label 1 if % AR protein degradation in VCaP Cells falls strictly below 90%, else label 0 (ties count as label 0)

# Molecule, Cat
rows = [
    ("CN(c1ccc(C#N)c(Cl)c1)[C@H]1CC[C@H](NC(=O)c2ccc(N3CCN(C4CCN(c5ccc6c(c5)C(=O)N(C5CCC(=O)NC5=O)C6=O)CC4)CC3)cc2)CC1 (stereo partly drawn)", "label 0"),
    ("CC(O)(CS(=O)(=O)c1ccc(N2CCN(C3CCN(c4ccc5c(c4)C(=O)N(C4CCC(=O)NC4=O)C5=O)CC3)CC2)cc1)C(=O)Nc1ccc(C#N)c(C(F)(F)F)c1 (stereo not drawn)", "label 1"),
    ("N#Cc1ccc(O[C@H]2CC[C@H](NC(=O)c3ccc(NCCCCCCCCCNc4ccc5c(c4)C(=O)N(C4CCC(=O)NC4=O)C5=O)cc3)CC2)cc1Cl (stereo partly drawn)", "label 1"),
    ("N#Cc1ccc(O[C@H]2CC[C@H](NC(=O)c3ccc(NCCCCCCNc4ccc5c(c4)C(=O)N(C4CCC(=O)NC4=O)C5=O)cc3)CC2)cc1Cl (stereo partly drawn)", "label 1"),
    ("N#Cc1ccc(O[C@H]2CC[C@H](NC(=O)c3ccc(NCCCCNc4ccc5c(c4)C(=O)N(C4CCC(=O)NC4=O)C5=O)cc3)CC2)cc1Cl (stereo partly drawn)", "label 1"),
    ("N#Cc1ccc(O[C@H]2CC[C@H](NC(=O)c3ccc(N4CCC(N5CCN(c6ccc7c(c6)C(=O)N(C6CCC(=O)NC6=O)C7=O)CC5)CC4)cc3)C2)cc1Cl (stereo partly drawn)", "label 1"),
    ("N#Cc1ccc(O[C@H]2CC[C@H](NC(=O)c3ccc(NCCCCCCCNc4ccc5c(c4)C(=O)N(C4CCC(=O)NC4=O)C5=O)cc3)CC2)cc1Cl (stereo partly drawn)", "label 1"),
    ("N#Cc1ccc(O[C@H]2CC[C@H](NC(=O)c3ccc(NCCCCCCCCNc4ccc5c(c4)C(=O)N(C4CCC(=O)NC4=O)C5=O)cc3)CC2)cc1Cl (stereo partly drawn)", "label 1"),
    ("CN(c1ccc(C#N)c(Cl)c1)[C@H]1CC[C@H](NC(=O)c2ccc(N3CCN(CC4CCN(c5ccc6c(c5)C(=O)N(C5CCC(=O)NC5=O)C6=O)CC4)CC3)cc2)CC1 (stereo partly drawn)", "label 1"),
    ("N#Cc1ccc(O[C@H]2CC[C@H](NC(=O)c3ccc(N4CCN(CC5CN(c6ccc7c(c6)C(=O)N(C6CCC(=O)NC6=O)C7=O)C5)CC4)cc3)CC2)cc1Cl (stereo partly drawn)", "label 1"),
    ("CN(c1ccc(C#N)c(Cl)c1)[C@H]1CC[C@H](NC(=O)c2ccc(N3CCC(CN4CCN(c5ccc6c(c5)C(=O)N(C5CCC(=O)NC5=O)C6=O)CC4)CC3)cc2)CC1 (stereo partly drawn)", "label 0"),
]
